These data points were gathered from patent US6017871A.

# kcat per record follows
substrate: C[C@H](NC(=O)CCC(=O)O)C(=O)N[C@@H](C)C(=O)N1CCC[C@H]1C(=O)N[C@@H](Cc1ccccc1)C(=O)Nc1ccc([N+](=O)[O-])cc1; assay: Kinetic parameters for hydrolysis of synthetic peptide substrate; type: biochemical, Bacillus lentus; conditions: other: Table III, 0.1 M Tris-HCL buffer, pH 8.6, 25° C.
Answer as a quantity: numeral, then unit.

Recorded kcat, per entry:
Bacillus lentus subtilisin variant N76D/S101R (Protease #2) (Lederbergia lenta; N74D/S99R) (protein, The mature subtilisin protein is coded by the codons beginning at the codon GCG (334-336) corresponding to Ala; made in house; host or cells: Bacillus subtilis) AQSVPWGISRVQAPAAHNRGLTGSGVKVAVLDTGISTHPDLNIRGGASFVPGEPSTQDGNGHGTHVAGTIAALDNSIGVLGVAPSAELYAVKVLGASGRGSVSSIAQGLEWAGNNGMHVANLSLGSPSPSATLEQAVNSATSRGVLVVAASGNSGAGSISYPARYANAMAVGATDQNNNRASFSQYGAGLDIVAPGVNVQSTYPGSTYASLNGTSMATPHVAGAAALVKQKNPSWSNVQIRNHLKNTATSLGSTNLYGSGLVNAEAATR
371 s⁻¹
Bacillus lentus subtilisin variant N76D/V104I (Protease #4) (Lederbergia lenta; N74D/V102I) (protein, The mature subtilisin protein is coded by the codons beginning at the codon GCG (334-336) corresponding to Ala; made in house; host or cells: Bacillus subtilis) AQSVPWGISRVQAPAAHNRGLTGSGVKVAVLDTGISTHPDLNIRGGASFVPGEPSTQDGNGHGTHVAGTIAALDNSIGVLGVAPSAELYAVKVLGASGSGSISSIAQGLEWAGNNGMHVANLSLGSPSPSATLEQAVNSATSRGVLVVAASGNSGAGSISYPARYANAMAVGATDQNNNRASFSQYGAGLDIVAPGVNVQSTYPGSTYASLNGTSMATPHVAGAAALVKQKNPSWSNVQIRNHLKNTATSLGSTNLYGSGLVNAEAATR
459 s⁻¹
Bacillus lentus subtilisin variant N76D/I107V (Protease #5) (Lederbergia lenta; I105V/N74D) (protein, The mature subtilisin protein is coded by the codons beginning at the codon GCG (334-336) corresponding to Ala; made in house; host or cells: Bacillus subtilis) AQSVPWGISRVQAPAAHNRGLTGSGVKVAVLDTGISTHPDLNIRGGASFVPGEPSTQDGNGHGTHVAGTIAALDNSIGVLGVAPSAELYAVKVLGASGSGSVSSVAQGLEWAGNNGMHVANLSLGSPSPSATLEQAVNSATSRGVLVVAASGNSGAGSISYPARYANAMAVGATDQNNNRASFSQYGAGLDIVAPGVNVQSTYPGSTYASLNGTSMATPHVAGAAALVKQKNPSWSNVQIRNHLKNTATSLGSTNLYGSGLVNAEAATR
219 s⁻¹

Input line: Field request: kcat | item: Bacillus lentus subtilisin variant N76D/N123S (Protease #6) (Lederbergia lenta; N121S/N74D) (protein, The mature subtilisin protein is coded by the codons beginning at the codon GCG (334-336) corresponding to Ala; made in house; host or cells: Bacillus subtilis) AQSVPWGISRVQAPAAHNRGLTGSGVKVAVLDTGISTHPDLNIRGGASFVPGEPSTQDGNGHGTHVAGTIAALDNSIGVLGVAPSAELYAVKVLGASGSGSVSSIAQGLEWAGNNGMHVASLSLGSPSPSATLEQAVNSATSRGVLVVAASGNSGAGSISYPARYANAMAVGATDQNNNRASFSQYGAGLDIVAPGVNVQSTYPGSTYASLNGTSMATPHVAGAAALVKQKNPSWSNVQIRNHLKNTATSLGSTNLYGSGLVNAEAATR
Output line: 115 s⁻¹

Input line: Which kcat value belongs to Bacillus lentus subtilisin variant N76D/S99D (Protease #1) (Lederbergia lenta; N74D/S97D) (protein, The mature subtilisin protein is coded by the codons beginning at the codon GCG (334-336) corresponding to Ala; made in house; host or cells: Bacillus subtilis) AQSVPWGISRVQAPAAHNRGLTGSGVKVAVLDTGISTHPDLNIRGGASFVPGEPSTQDGNGHGTHVAGTIAALDNSIGVLGVAPSAELYAVKVLGADGSGSVSSIAQGLEWAGNNGMHVANLSLGSPSPSATLEQAVNSATSRGVLVVAASGNSGAGSISYPARYANAMAVGATDQNNNRASFSQYGAGLDIVAPGVNVQSTYPGSTYASLNGTSMATPHVAGAAALVKQKNPSWSNVQIRNHLKNTATSLGSTNLYGSGLVNAEAATR ?
Output line: 88 s⁻¹

Input line: Field request: kcat | item: Bacillus lentus subtilisin variant N76D (Lederbergia lenta; N74D) (protein, The mature subtilisin protein is coded by the codons beginning at the codon GCG (334-336) corresponding to Ala; made in house; host or cells: Bacillus subtilis) AQSVPWGISRVQAPAAHNRGLTGSGVKVAVLDTGISTHPDLNIRGGASFVPGEPSTQDGNGHGTHVAGTIAALDNSIGVLGVAPSAELYAVKVLGASGSGSVSSIAQGLEWAGNNGMHVANLSLGSPSPSATLEQAVNSATSRGVLVVAASGNSGAGSISYPARYANAMAVGATDQNNNRASFSQYGAGLDIVAPGVNVQSTYPGSTYASLNGTSMATPHVAGAAALVKQKNPSWSNVQIRNHLKNTATSLGSTNLYGSGLVNAEAATR
Output line: 219 s⁻¹
